assay: Total plasma clearance in Wistar rat at 0.3 mg/kg, iv and 0.3 mg/kg, po; type: ADME, organism-based
Result type: clearance (mL/min/kg)
Numbers only here, please. The scale is mL/min/kg.

// query clearance value for entry Fc1ccccc1Cn1nc(-c2nnn[nH]2)c2cccnc21
4.67

---

test system: Hepatocyte; experiment: Stability of the compound in rat liver hepatocytes; format: ADME, cell-based
Result type: Stability (%)
Numbers only here, please. The scale is %.

Compound structure string	Tested target	Units symbol	Stability
O=c1[nH]c(-c2nn(Cc3ccccc3F)c3ncccc23)ns1	Hepatocyte	%	90

Now look at this entry.
// query Stability value for entry O=c1[nH]c(-c2nn(Cc3ccccc3F)c3ncccc23)no1
98

---

test: Mean residence time in Wistar rat at 0.3 mg/kg, iv and 0.3 mg/kg, po; type: ADME, organism-based; settings: in vivo
Result type: MRT (h)
Numbers only here, please. The scale is h.

// query MRT value for entry O=c1[nH]c(-c2nn(Cc3ccccc3F)c3ncccc23)no1
1.9

---

assay: Pseudo-thermodynamic solubility of the compound at pH 6.5; type: physicochemical; conditions: buffer, read-out: Therm_solubility
Result type: solubility thermodynamic
Could you write the number and then its unit?

Compound structure string	solubility thermodynamic
O=c1[nH]nc(-c2nn(Cc3ccccc3F)c3ncccc23)o1	10 µg/mL

// query solubility thermodynamic value for entry O=c1[nH]c(-c2nn(Cc3ccccc3F)c3ncccc23)no1
320 µg/mL

// query solubility thermodynamic value for entry O=c1[nH]nc(-c2nn(Cc3ccccc3F)c3ncccc23)[nH]1
16 µg/mL

// query solubility thermodynamic value for entry Cn1nc(-c2nn(Cc3ccccc3F)c3ncccc23)[nH]c1=O
4 µg/mL

// query solubility thermodynamic value for entry Fc1ccccc1Cn1nc(-c2nnn[nH]2)c2cccnc21
150 µg/mL

// query solubility thermodynamic value for entry O=c1[nH]c(-c2nn(Cc3ccccc3F)c3ncccc23)ns1
11 µg/mL

// query solubility thermodynamic value for entry Fc1ccccc1Cn1nc(-c2noc(=S)[nH]2)c2cccnc21
280 µg/mL

---

assay: Total blood clearance in Wistar rat at 0.3 mg/kg, iv and 0.3 mg/kg, po; assay type: ADME, organism-based; details: whole blood
Result type: clearance (mL/min/kg)
Numbers only here, please. The scale is mL/min/kg.

Compound structure string	clearance (mL/min/kg)
Nc1nc(-c2nn(Cc3ccccc3F)c3ncccc23)nc(N)c1N1CCOCC1	75

Now look at this entry.
// query clearance value for entry O=c1[nH]c(-c2nn(Cc3ccccc3F)c3ncccc23)no1
11.7

---

system: Hepatocyte; assay: Stability of the compound in rat liver hepatocytes; format: ADME, cell-based
Each item that follows carries a reported Stability.
Could you write the number and then its unit?

Compound structure string	Tested target	Stability
CCn1nc(-c2nn(Cc3ccccc3F)c3ncccc23)[nH]c1=O	Hepatocyte	69%
Fc1ccccc1Cn1nc(-c2noc(=S)[nH]2)c2cccnc21	Hepatocyte	69%
Nc1nc(-c2nn(Cc3ccccc3F)c3ncccc23)nc(N)c1N1CCOCC1	Hepatocyte	76%
O=c1[nH]c(-c2nn(Cc3ccccc3F)c3ncccc23)nn1CC(F)(F)F	Hepatocyte	91%

// query Stability value for entry Fc1ccccc1Cn1nc(-c2nnn[nH]2)c2cccnc21
100%

// query Stability value for entry Cn1nc(-c2nn(Cc3ccccc3F)c3ncccc23)[nH]c1=O
74%

// query Stability value for entry O=c1[nH]nc(-c2nn(Cc3ccccc3F)c3ncccc23)[nH]1
59%
